Where do these numbers come from? They come from PubChem BioAssay (NCI).

Reported growth by item:
test system: MCF7 breast; assay: NCI-60 one-dose screen, 48 h (100 = growth as untreated, 0 = no growth, -100 = all killed); settings: 10 µM unless noted
Compounds without any hit were thinned out: in the full panel of roughly 83,000, 20% have a hit.

| Smiles Record | Unit Annotation | growth |
| --- | --- | --- |
| COc1ccc2c(CCCC(c3ccccc3)c3ccccc3)c3[n+](cc2c1OC)CCc1cc2c(cc1-3)OCO2 | % | -3.37 |
| Brc1ccc([I+]c2ccc(Br)cc2)cc1 | % | 7.26 |
| Cc1cc2c3c(cccc3c1)C(=O)c1ccccc1-2 | % | 82 |
| Cc1nc(Nc2n[nH]c3c2CN(C(=O)N[C@H](CN(C)C)c2ccccc2)C3(C)C)c2sccc2n1 | % | -3.74 |
| COc1ccc2c(c1)cn1c3ccc(O)cc3nc(N)c21 | % | 17.2 |
| Cc1ccc(F)c(NC(=O)Nc2ccc(-c3cccc4[nH]nc(N)c34)cc2)c1 | % | 2.81 |
| Cc1ncc(-c2ccnc(Nc3ccc(S(C)(=O)=O)cc3)n2)n1C(C)C | % | 2.6 |
| Cc1ccc(Nc2nccc(N(C)c3ccc4c(C)n(C)nc4c3)n2)cc1S(N)(=O)=O | % | 32.3 |
| COc1cc2ncnc(Nc3ccc(O)cc3)c2cc1OC | % | 90.4 |
| CCc1ccc(/C=C/c2ccc(O)c3ncccc23)[n+](C)c1 | % | 53.8 |

---

tested on: M14 melanoma; assay: NCI-60 one-dose screen, 48 h; settings: 10 µM unless noted
Compounds without any hit were thinned out: in the full panel of roughly 83,000, 20% have a hit. Calls of active or inactive are those of the source. Rule for the calls: active = growth percent below 10; inactive = the rest.
Outcome codes: 1 = active, -1 = inactive

| Compound | Target Or System | Assigned Label |
| --- | --- | --- |
| COc1cc(NCCN(CC(C)C)CC(C)C)c2ncc(C)cc2c1 | M14 melanoma | -1 |
| CN1CCC(COc2cnc(-c3cccc(Cn4nc(-c5cccc(C#N)c5)ccc4=O)c3)nc2)CC1 | M14 melanoma | -1 |
| COc1ccc(Br)cc1NC(=O)Nc1cccc2c1ccn2Cc1ccnc(N)c1 | M14 melanoma | 1 |
| CC(=O)C1CC(C)CCC1C(C)C (configuration not stated) | M14 melanoma | -1 |
| Nc1c(C(=O)c2ccccc2)sc2nc(-c3cccs3)ccc12 | M14 melanoma | -1 |
| COC(=O)c1ccc2c(C(=Nc3ccc(N(C)C(=O)CN4CCN(C)CC4)cc3)c3ccccc3)c(O)[nH]c2c1 | M14 melanoma | -1 |
| COc1cc(N2CCC(N3CCN(C)CC3)CC2)ccc1Nc1ncnc(Nc2ccccc2S(=O)(=O)C(C)C)n1 | M14 melanoma | -1 |
| COC(=O)CCCNc1c(-c2c(O)c(O)cc3c(O)c(-c4c(C)cc5c(-c6nc7ccccn7c6NCCCC(=O)OC)c(O)c(O)cc5c4O)c(C)cc23)nc2ccccn12 | M14 melanoma | -1 |
| CCOc1cccc(/C=N/NC(=O)c2ccccc2Nc2ccnc(C(F)(F)F)c2)c1O | M14 melanoma | 1 |
| COC(=O)[C@H](Cc1ccc(O)cc1)NC(=O)[C@@H](OC)[C@@H]1Cc2cc3cc(OC4CC(OC5CC(O)C(O)C(C)O5)C(O)C(C)O4)c(C)c(O)c3c(O)c2C(=O)[C@H]1OC1CC(OC2CC(OC3CC(C)(O)C(O)C(C)O3)C(O)C(C)O2)C(O)C(C)O1 (some centres not stated) | M14 melanoma | 1 |
| O=C(Cn1cncn1)Nc1ccc(-c2nc3ccccc3s2)cc1 | M14 melanoma | -1 |
| CC(=O)c1c(C)c2cnc(Nc3ccc(N4CCNCC4)cn3)nc2n(C2CCCC2)c1=O | M14 melanoma | -1 |

---

test system: SK-MEL-5 melanoma; test: NCI-60 one-dose screen, 48 h (100 = growth as untreated, 0 = no growth, -100 = all killed); conditions: 10 µM unless noted
Compounds without any hit were thinned out: in the full panel of roughly 83,000, 20% have a hit.

| Smiles Record | growth [%] |
| --- | --- |
| Cc1c(N)ccc(-c2ccc(N)c(C)c2S(=O)(=O)O)c1S(=O)(=O)O | 110 |
| NC1(C(=O)N[C@@H](CCO)c2ccc(Cl)cc2)CCN(c2ncnc3[nH]ccc23)CC1 | 70.5 |
| Cc1nc2ccc(-n3ncc(C(=O)c4cc5ccccc5[nH]4)c3N)cc2[nH]1 | 32.8 |
| CC[C@H](CO)Nc1nc(NCc2ccccc2)c2ncn(C(C)C)c2n1 | 66.5 |

---

Test system: ACHN renal
Test: NCI-60 one-dose screen, 48 h (100 = growth as untreated, 0 = no growth, -100 = all killed)
Settings: 10 µM unless noted
Description: Growth inhibition of the ACHN human tumor cell line is measured as a screen for anti-cancer activity. Cells are grown in 96 well plates and exposed to the test compound for 48 hours. Compounds are tested at a single concentration, which is 10^-5 M for most compounds. The reported endpoint is percent growth (GI% or GIPRCNT), where numbers from 0 - 100% represent growth inhibition, and numbers from -100% - 0 represent cell death. For example, a value of 40 represents 60% growth inhibition. […]
About 83,000 compounds went through this panel and 20% of them were active in at least one assay; those are over-represented in the sample as a whole.
Reported growth by item:

| Compound | Target Or System | growth / % |
| --- | --- | --- |
| COc1cc2c3c(c1)nc(C)n3CCC2 | ACHN renal | 108 |
| COCCOc1cnc2ccn([C@H](C)c3nnc4c(F)cc(-c5cnn(C)c5)cn34)c(=O)c2c1 | ACHN renal | 80.3 |
| C=C1[C@@H](O)C[C@H]2C(C)(C)C[C@H](Cl)C[C@]2(C)[C@H]1C[C@H](O)[C@H]1CC(=O)NC1=O | ACHN renal | -26.2 |
| CCOc1cc2ncc(C#N)c(Nc3ccc(OCc4ccccn4)c(Cl)c3)c2cc1NC(=O)/C=C/CN(C)C | ACHN renal | -56 |
| O=C1NC(=O)/C(=C/c2ccc3nccc(-c4ccncc4)c3c2)S1 | ACHN renal | -21.2 |
| COc1cnc2c(c1)C(=O)c1c-2n(CCCNC2=NCCS2)c(=O)c2cc(Cl)ccc12 | ACHN renal | -91.8 |
| Cc1cc(N(CCNc2ccnc3cc(Cl)ccc23)Cc2ccc3c(c2)OCO3)nc(N2CCCC2)n1 | ACHN renal | -49.1 |
| Cc1cccc(Cl)c1NC(=O)c1cnc(Nc2cc(N3CCOCC3)cc(N3CCOCC3)c2)s1 | ACHN renal | -7.5 |
| COc1cc2c(c(OC)c1)C1c3ccccc3NC(=O)N1CC2 (centres undefined) | ACHN renal | 44.9 |
| N#Cc1c(NC(=O)c2cccs2)[n+]([O-])c2ccc(F)cc2[n+]1[O-] | ACHN renal | 89 |
| C=CC(=O)N1CCC[C@@H](n2nc(-c3ccc(Oc4ccccc4)cc3)c3c(N)ncnc32)C1 | ACHN renal | 23.5 |
| C/C(=N\NC(=O)Cn1c(-c2ccc(S(C)(=O)=O)cc2)nc2ccccc21)c1ccc(Cl)cc1 | ACHN renal | 93.6 |
| CC(C)NC[C@@H](C(=O)N1CCN(c2ncnc3c2[C@H](C)C[C@H]3O)CC1)c1ccc(Cl)cc1 | ACHN renal | 68.7 |
| O=[N+]([O-])c1cc(Br)cc2c1[nH]c1ccc(Br)cc12 | ACHN renal | 32.9 |
| O=C(NC1CCNCC1)c1[nH]ncc1NC(=O)c1c(Cl)cccc1Cl | ACHN renal | 66.5 |
| COC(=O)CCCNc1c(-c2c(O)c(O)cc3c(O)c(-c4c(C)cc5c(-c6nc7ccccn7c6NCCCC(=O)OC)c(O)c(O)cc5c4O)c(C)cc23)nc2ccccn12 | ACHN renal | 78.7 |
| O=c1[nH]c(N2CCOCC2)nc2scc(-c3ccccc3)c12 | ACHN renal | 99.3 |
| Cc1ccc(-[n+]2c3cc(N)c(C)cc3nc3cc(C)c(Nc4ccccc4)cc32)cc1 | ACHN renal | -92 |
| Cc1cc(C(=O)Nc2cc(Oc3ccc4nc(NC(=O)C5CC5)cn4n3)ccc2C)n(C)n1 | ACHN renal | 37.3 |
| CC(=O)O[C@]1(C)C[C@H](O)[C@]2(O)C=CO[C@H](O[C@@H]3O[C@H](CO)[C@@H](O)[C@H](O)[C@H]3O)[C@@H]21 | ACHN renal | 108 |
| O=CC(OC(=O)c1ccccc1)C(OC(=O)c1ccccc1)C(COC(c1ccccc1)(c1ccccc1)c1ccccc1)OC(=O)c1ccccc1 (centres undefined) | ACHN renal | 60 |
| COc1ccc2c(c1)cn1c3ccc(O)cc3nc(N)c21 | ACHN renal | 27.4 |
| Cc1cc(N2CCCC2)nc(N(CCCNc2ccnc3cc(Cl)ccc23)Cc2ccc3c(c2)OCO3)n1 | ACHN renal | -10.7 |
| CCN(CCO)CCCOc1ccc2c(Nc3cc(CC(=O)Nc4cccc(F)c4)[nH]n3)ncnc2c1 | ACHN renal | 48.9 |
